Where do these numbers come from? They come from PubChem BioAssay AID2202554.

# System: S. typhimurium/E. coli reverse mutation, colony counts
# Procedure details: Bacterial reverse mutation test (aka Ames test) summary data;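 also: His-minus Salmonella and trp-minus E. coli WP2 uvrA pKM101 with or without liver S9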
Records with an inconclusive call do not appear. The source made the active and inactive calls. No rule for the calls is given here.
Outcome codes: Y (active), N (inactive)

COCCOCCOCCOC ... Y
COc1cc(-c2ccc(N=Nc3c(S(=O)(=O)O)cc4cc(S(=O)(=O)O)cc(N)c4c3O)c(OC)c2)ccc1N=Nc1c(S(=O)(=O)O)cc2cc(S(=O)(=O)O)cc(N)c2c1O ... N
CCN(CC)CCN1C(=O)CN=C(c2ccccc2F)c2cc(Cl)ccc21 ... N
Cc1cc(-c2cc(C)c(N)c(C)c2)cc(C)c1N ... N
C/C=C/C=C/C(=O)O ... N
CCCOC(=O)c1cc(O)c(O)c(O)c1 ... N
CNc1ccc(N(CCO)CCO)cc1[N+](=O)[O-] ... Y
COCOC ... N
CC(=O)OC(C(=O)c1ccccc1)c1ccccc1 (stereo not drawn) ... N
FC(F)(F)C(Cl)Br (stereo not drawn) ... N
CC(C)CC(C)Nc1ccc(Nc2ccccc2)cc1 (stereo not drawn) ... N
O=C(O)c1cc(O)c2c(c1)[C@@H]([C@H]1c3cc(C(=O)O)cc(O)c3C(=O)c3c(O[C@@H]4O[C@H](CO)[C@@H](O)[C@H](O)[C@H]4O)cccc31)c1cccc(O[C@@H]3O[C@H](CO)[C@@H](O)[C@H](O)[C@H]3O)c1C2=O ... N
CC(=O)c1ccncc1 ... N
O=C(O)C(Cl)(Br)Br ... Y
NC(=O)c1ccccc1[N+](=O)[O-] ... Y
Cc1c(N)cccc1[N+](=O)[O-] ... Y
O=Cc1ccccc1C=O ... Y
O=C(Nc1ccc(Br)cc1)c1cc(Br)cc(Br)c1O ... N
O=C(CCl)c1ccc(Cl)cc1Cl ... Y
CCOCCOC(C)=O ... Y
IC(I)I ... Y
CCC[N+](=O)[O-] ... N
CCCCCCC[CH2][Sn]1([CH2]CCCCCCC)[O]C(=O)C=CC(=O)[O]1 ... N
O=C(O)CC(C(=O)O)C(CC(=O)O)C(=O)O (stereo not drawn) ... Y
CCCCNCC ... N
O=C(Cl)c1ccccc1F ... Y
N#CC(Cl)(Cl)Cl ... Y
CC1CCC2CC1C2(C)C (stereo not drawn) ... N

* * *

# System: S. typhimurium/E. coli reverse mutation, colony counts
# Procedure details: Bacterial reverse mutation test (aka Ames test) summary data;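 also: His-minus Salmonella and trp-minus E. coli WP2 uvrA pKM101 with or without liver S9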
Inconclusive results are not listed. The source made the active and inactive calls. The rule behind the calls is not given here.
Outcome codes: yes (1) (active), no (0) (inactive)

O=C(O)CC(=O)O ... no (0)
C[C@@H]1C[C@@H]([C@H](O)CC2CC(=O)NC(=O)C2)C(=O)[C@@H](C)C1 ... no (0)
Cc1c(O)c(Br)c(Br)c(Br)c1Br ... no (0)
Nc1ccc(S(=O)(=O)O)cc1 ... no (0)
COC(=O)Nc1cccc(OC(=O)Nc2cccc(C)c2)c1 ... yes (1)
CC[C@H]1CN2CCc3cc(OC)c(OC)cc3[C@@H]2C[C@@H]1C[C@H]1NCCc2cc(OC)c(OC)cc21 ... no (0)
CCCCCCc1ccc(-c2ccc(C#N)cc2)cc1 ... no (0)
CCCCCCCCCCCCCCCCCC(O)=[OH+].O.[Cl][Cr][Cl].[Cl][Cr][Cl] ... yes (1)
CCOS(C)(=O)=O ... yes (1)
CCC(C)C(C)CO (stereo not drawn) ... no (0)
CN=[N+](C)[O-] ... yes (1)
CC(=O)Nc1ccc(N)cc1 ... yes (1)
S=C1NCCN1 ... yes (1)
